- Test system: HCI13 (cells of an ER-positive luminal breast cancer xenograft)
- Assay Overview: cell viability (% of vehicle); higher = less cytotoxic;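 further: PDX cells carrying CMV promoter-driven luciferase, viability read as total photon flux per second by IVIS imaging following D-luciferin, vehicle control 0.1% DMSO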
- Experimental Parameters: 10 µM; 72 h
Measure Name: cell viability
Just the number, please, no unit after it.

As a guide, the following entries are already answered.
Cc1ccc(C2OC(CO)C(O)C(O)C2O)cc1Cc1ccc(-c2ccc(F)cc2)s1 (stereo not given) [Canagliflozin] | 77.3
Clc1ccc(COC(Cn2ccnc2)c2ccc(Cl)cc2Cl)cc1.O=[N+]([O-])O (stereo not given) [Econazole nitrate] | 36.3
O=C(O)CO.[NH2-].[NH2-].[Pt+2] [Nedaplatin] | 97
Cc1ncc([N+](=O)[O-])n1CCO [Metronidazole] | 104

Okay, next one:
What value of cell viability has been recorded for this entry: CCCC(=O)Nc1ccc(OCC(O)CNC(C)C)c(C(C)=O)c1.Cl (stereo not given) [Acebutolol HCl]
76.3

====

- System: HCI01 (cells of a triple-negative basal-like breast cancer xenograft)
- Assay Overview: cell viability (% of vehicle); higher = less cytotoxic
- Experimental Parameters: 10 µM; 72 h
Field: label. Allowed values: T (cell viability < 100) or F (cell viability >= 100).

CCC1OC(=O)CC(O)C(C)C(OC2OC(C)C(O)C(N(C)C)C2O)C(CCN2CC(C)CC(C)C2)CC(C)C(=O)C=CC(C)=CC1COC1OC(C)C(O)C(OC)C1OC (stereo not drawn) | T
O=c1cc(O)c(Cl)c[nH]1 | T
COc1ccc2c(c1OC)C(=O)OC2C1c2c(cc3c(c2OC)OCO3)CCN1C.Cl (stereo not drawn) [Noscapine HCl] | F
CN(C)CCCN1c2ccccc2CCc2ccccc21.Cl [Imipramine (hydrochloride)] | F
CC1c2cccc(O)c2C(O)=C2C(=O)C3(O)C(O)=C(C(N)=O)C(=O)C(N(C)C)C3C(O)C21.Cl (stereo not drawn) [Doxycycline hyclate] | F

Check if cell viability falls below 100 for Cc1cnc(C(=O)O)c[n+]1[O-] .
T

Next compound up: NCC1OC(OC2C(CO)OC(OC3C(O)C(N)CC(N)C3OC3OC(CO)C(O)C(O)C3N)C2O)C(N)C(O)C1O.O=S(=O)(O)O (stereo not drawn) [Paromomycin Sulfate]
F

====

- Test system: WHIM30 (cells of a triple-negative basal-like breast cancer xenograft)
- Assay Overview: cell viability (% of vehicle); higher = less cytotoxic
- Experimental Parameters: 10 µM; 72 h
Threshold 100. cell viability below it: label 1. cell viability at it or above: label 0.

Here's what some known entries look like.
CC(CCc1ccccc1)NCC(O)c1ccc(O)c(C(N)=O)c1.Cl (configuration not stated) [Labetalol HCl] | label 0
COc1cnc(NS(=O)(=O)c2ccc(N)cc2)nc1 | label 1
CC(C)c1nc(CN(C)C(=O)NC(CCN2CCOCC2)C(=O)NC(CCC(Cc2ccccc2)NC(=O)OCc2cncs2)Cc2ccccc2)cs1 (configuration not stated) [Cobicistat (GS-9350)] | label 1
CC(C)(Oc1ccc(C2CC2(Cl)Cl)cc1)C(=O)O (configuration not stated) [Ciprofibrate] | label 0
CC1OC(OC2C(CO)OC(OC3C(CO)OC(O)C(O)C3O)C(O)C2O)C(O)C(O)C1NC1C=C(CO)C(O)C(O)C1O (configuration not stated) | label 0

In the record for CC(C)OC(=O)C(C)(C)Oc1ccc(C(=O)c2ccc(Cl)cc2)cc1 [Fenofibrate] , is cell viability less than 100?
label 0

====

- Test system: HCI03 (cells of an ER-positive luminal breast cancer xenograft)
- Assay Overview: cell viability (% of vehicle); higher = less cytotoxic
- Experimental Parameters: 10 µM; 72 h
Measure Name: cell viability
Enter the number alone.

What cell viability value was documented for this compound, Cc1cc(C(C)(C)C)cc(C)c1CC1=NCCN1.Cl [Xylometazoline HCl] ?
114

Would you mind doing CC1(C)SC2C(NC(=O)Cc3ccccc3)C(=O)N2C1C(=O)[O-].[Na+] (stereo not drawn) [Penicillin G Sodium] as well?
105

Item: CC1(C)Cc2c(-c3ccccc3)c(-c3ccc(Cl)cc3)c(CC(=O)O)n2C1
99.4

Queued: COc1ccc2c(c1)c(CC(=O)OCC(=O)O)c(C)n2C(=O)c1ccc(Cl)cc1
113

Would you kindly repeat that for CN1C2CCC1CC(OC(c1ccccc1)c1ccccc1)C2.CS(=O)(=O)O (stereo not drawn) [Benztropine mesylate] ?
108

Param item: Nc1nc(=O)n(C2CSC(CO)O2)cc1F (stereo not drawn)
153

Also CCC(C)(C)c1ccc(CC(C)CN2CC(C)OC(C)C2)cc1.Cl (stereo not drawn) [Amorolfine HCl] , if possible.
129

Also check CC(=O)c1c(C)c2cnc(Nc3ccc(N4CCNCC4)cn3)nc2n(C2CCCC2)c1=O.Cl
141

Reference source for all entries: the supplement of paper PMC6992640
